- Target or system: hPAOX (Homo sapiens (Human), UniProt Q6QHF9)
- Sequence (Q6QHF9 whole entry): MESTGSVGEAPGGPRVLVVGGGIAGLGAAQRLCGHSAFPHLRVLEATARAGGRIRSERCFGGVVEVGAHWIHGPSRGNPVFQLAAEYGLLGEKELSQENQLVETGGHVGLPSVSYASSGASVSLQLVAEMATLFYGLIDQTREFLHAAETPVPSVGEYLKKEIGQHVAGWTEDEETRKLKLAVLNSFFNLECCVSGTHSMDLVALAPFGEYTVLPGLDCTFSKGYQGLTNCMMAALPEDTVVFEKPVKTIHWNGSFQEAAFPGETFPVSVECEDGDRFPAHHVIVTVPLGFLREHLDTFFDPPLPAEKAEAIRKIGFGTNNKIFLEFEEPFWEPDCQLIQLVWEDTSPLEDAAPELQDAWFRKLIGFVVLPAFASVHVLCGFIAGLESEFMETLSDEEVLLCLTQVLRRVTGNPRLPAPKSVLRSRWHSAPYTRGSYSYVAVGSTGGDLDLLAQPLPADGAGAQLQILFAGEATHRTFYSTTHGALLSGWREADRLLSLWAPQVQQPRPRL
- Protocol text: Human PAOX assay (HyPerBlu chemiluminescent detection of hydrogen peroxide)
- Measurement conditions: 60 pM recombinant PAOX, 20 μM N-acetylspermine substrate
Consider the following compounds and their measured IC50 readings.
Measured attribute: IC50

[[record]]
compound = "CN1CCC(C)(CNC(=O)c2cc3nc(-c4ccccc4)cc(-c4ccccc4)n3n2)C1 (centres unmarked) [Example 21]"
result = "8610 nM"

[[record]]
compound = "O=C(NC1CNC1)c1cc2nc(-c3ccccc3)cc(-c3ccccc3)n2n1 [Example 115]"
result = "213 nM"

[[record]]
compound = "O=C(NCCCn1ccnc1)c1cc2nc(-c3ccccc3)cc(N3CCCC(F)C3)n2n1 (centres unmarked) [Example 62]"
result = "6040 nM"

[[record]]
compound = "CN1CCC(CNC(=O)c2cc3nc(-c4ccccc4)cc(-c4ccccc4)n3n2)CC1 [Example 24]"
result = "1940 nM"

[[record]]
compound = "NCCCNC(=O)c1cc2nc(-c3ccccc3)cc(-c3ccccc3)n2n1 [Example 116]"
result = "119 nM"

[[record]]
compound = "N#Cc1ccc(-c2cc(-c3ccccc3)nc3cc(C(=O)NCCCn4ccnc4)nn23)cc1 [Example 90]"
result = "1610 nM"

[[record]]
compound = "Cc1nccn1CCCNC(=O)c1cc2nc(-c3ccccc3)cc(-c3ccccc3)n2n1 [Example 2]"
result = "942 nM"

[[record]]
compound = "O=C(NCCCn1ccnc1)c1cc2nc(-c3ccccc3)cc(N3CCC(F)CC3)n2n1 [Example 63]"
result = "2330 nM"

[[record]]
compound = "CN1CC(NC(=O)c2cc3nc(N4CCC4)cc(-c4ccccc4)n3n2)C1 [Example 100]"
result = "> 31200 nM"

[[record]]
compound = "O=C(NCCCn1ccnc1)c1cc2nc(-c3ccccc3)cc(-c3cccc(O)c3)n2n1 [Example 87]"
result = "387 nM"

[[record]]
compound = "Cc1c(C(=O)NC2CCN(C)C2)nn2c(-c3ccccc3)cc(-c3ccccc3)nc12 (centres unmarked) [Example 51]"
result = "7710 nM"

[[record]]
compound = "CN1CC[C@@H](NC(=O)c2cc3nc(-c4ccccc4)cc(-c4ccccc4)n3n2)C1 [Example 8]"
result = "10700 nM"

[[record]]
compound = "Cc1cc(-c2ccccc2)nc2cc(C(=O)NCCCn3ccnc3)nn12 [Example 123]"
result = "4040 nM"

[[record]]
compound = "CC(=O)Nc1cccc(-c2cc(-c3ccccc3)nc3cc(C(=O)NCCCn4ccnc4)nn23)c1 [Example 77]"
result = "544 nM"

[[record]]
compound = "O=C(NCCCn1ccnc1)c1cc2nc(-c3ccccc3)cc(-c3cccnc3)n2n1 [Example 96]"
result = "6910 nM"

[[record]]
compound = "O=C(NCCCCN1CCCC1)c1cc2nc(-c3ccccc3)cc(-c3ccccc3)n2n1 [Example 30]"
result = "129 nM"

[[record]]
compound = "O=C(NCCc1ncc[nH]1)c1cc2nc(-c3ccccc3)cc(-c3ccccc3)n2n1 [Example 25]"
result = "35 nM"

